Assignment: determine reported Ki for the given compounds.
# subject_of_test: Recombinant Human Poly(ADP-Ribose)Polymerase (PARP), PARP-1 (Homo sapiens, UniProt P09874)
# Sequence (P09874 whole entry): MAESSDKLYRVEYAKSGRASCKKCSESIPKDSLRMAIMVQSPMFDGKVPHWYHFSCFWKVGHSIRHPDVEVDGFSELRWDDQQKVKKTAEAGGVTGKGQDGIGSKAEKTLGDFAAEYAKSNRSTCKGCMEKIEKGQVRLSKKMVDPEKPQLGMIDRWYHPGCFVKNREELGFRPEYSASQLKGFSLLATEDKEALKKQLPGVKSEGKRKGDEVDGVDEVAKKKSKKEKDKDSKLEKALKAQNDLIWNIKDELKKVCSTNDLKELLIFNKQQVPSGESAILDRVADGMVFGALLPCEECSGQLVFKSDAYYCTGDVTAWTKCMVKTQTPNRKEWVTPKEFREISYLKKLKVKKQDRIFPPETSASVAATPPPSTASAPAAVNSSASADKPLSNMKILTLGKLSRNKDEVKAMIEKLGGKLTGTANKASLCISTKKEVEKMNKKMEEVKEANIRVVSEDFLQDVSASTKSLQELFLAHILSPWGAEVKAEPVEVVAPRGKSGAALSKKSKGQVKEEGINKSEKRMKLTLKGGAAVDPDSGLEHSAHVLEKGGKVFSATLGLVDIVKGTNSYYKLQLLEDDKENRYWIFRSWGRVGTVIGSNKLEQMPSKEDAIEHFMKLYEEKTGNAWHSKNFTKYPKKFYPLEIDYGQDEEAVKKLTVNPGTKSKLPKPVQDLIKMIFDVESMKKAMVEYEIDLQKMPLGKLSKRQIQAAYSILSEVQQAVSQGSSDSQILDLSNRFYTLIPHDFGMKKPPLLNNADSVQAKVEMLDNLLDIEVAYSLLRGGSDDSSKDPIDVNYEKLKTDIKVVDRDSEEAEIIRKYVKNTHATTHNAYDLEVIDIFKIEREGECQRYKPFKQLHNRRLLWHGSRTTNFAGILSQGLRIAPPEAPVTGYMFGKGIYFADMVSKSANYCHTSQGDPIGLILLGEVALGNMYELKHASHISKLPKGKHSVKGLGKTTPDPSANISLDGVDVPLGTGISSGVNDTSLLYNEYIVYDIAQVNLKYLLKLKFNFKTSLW
# assay_notes: PARP1 assay (SPA/FlashPlate, [3H]-NAD+ incorporation into biotinylated histone H1)
# run_conditions: 1 nM PARP enzyme, 1.5 μM [3H]-NAD+, 200 nM biotinylated histone H1, 200 nM slDNA; Ki from inhibition curves at various substrate concentrations
Give bare numbers, in nM.

For each listed entry, give its Ki.
1. NC(=O)c1cccc2[nH]c(-c3ccc([C@H]4CCCN4C4CCC4)s3)nc12 [Example 21]
2. NC(=O)c1cccc2[nH]c(-c3ccc(-c4nnc(C(F)(F)F)o4)cn3)nc12 [Example 52]
3. CC(C)N1CCC(c2nc(-c3nc4c(C(N)=O)cccc4[nH]3)cs2)CC1 [Example 7]
4. NC(=O)c1cccc2[nH]c(-c3ccc(-c4ccccn4)s3)nc12 [Example 10]

A.
4
14
61
3.1

Go through the items and report each one's Ki.
1. NC(=O)c1cccc2[nH]c(-c3ccc([C@H]4CCCN4)s3)nc12 [Example 16]
2. CN1CCC(c2nc(-c3nc4c(C(N)=O)cccc4[nH]3)cs2)CC1 [Example 6]

A.
[6, 45]

Provide Ki values for the following items, in order.
1. CN1CCCC1c1ccc(-c2nc3c(C(N)=O)cccc3[nH]2)s1 (centres unmarked) [Example 35]
2. NC(=O)c1cccc2[nH]c(-c3ccc(-c4ccncc4)s3)nc12 [Example 14]
3. NC(=O)c1cccc2[nH]c(-c3ccc([C@H]4CCCN4C4CCCCC4)s3)nc12 [Example 23]
4. NC(=O)c1cccc2[nH]c(-c3csc(-c4ccncc4)n3)nc12 [Example 2]
5. NC(=O)c1cccc2[nH]c(-c3ccc(-c4ncccn4)s3)nc12 [Example 12]
6. CC(C)CN1CCCCC1c1ccc(-c2nc3c(C(N)=O)cccc3[nH]2)s1 (centres unmarked) [Example 33]
7. NC(=O)c1cccc2[nH]c(-c3ccc(C4CCCN4C4CCCCC4)nc3)nc12 (centres unmarked) [Example 48]

A.
1. 7
2. 3.2
3. 8
4. 11.8
5. 9
6. 21
7. 14

Please state Ki for every compound in the list that follows.
1. NC(=O)c1cccc2[nH]c(-c3ccc(-c4cnco4)nc3)nc12 [Example 50]
2. NC(=O)c1cccc2[nH]c(-c3ccc(C4CCCCN4C4CCC4)s3)nc12 (centres unmarked) [Example 32]
3. CCCN1CCCC1c1ccc(-c2nc3c(C(N)=O)cccc3[nH]2)s1 (centres unmarked) [Example 37]
4. NC(=O)c1cccc2[nH]c(-c3ccc(-c4cnccn4)s3)nc12 [Example 11]

A.
1. 0.8
2. 23
3. 7
4. 2
